Assay: Fluocinolone acetonide concentration in dog synovial fluid after intraarticular implants in knee joints
Format: in vivo, Canis familiaris
Details: dog, synovial fluid (left knee joint), other: bilateral intraarticular implants (knee joints), 18 mg, Left leg (18 mg implants), Dog 3002, Day 3; read-out: Assayed Concentrations of Fluocinolone Acetonide in Dog Synovial Fluid Samples (Left Leg)
readout-type: concentration at 3 day (ng/mL)
Dear colleague, please return just the value in ng/mL, with no unit written.

stdin: I am curious: what concentration at 3 day value has been reported for CC1(C)O[C@@H]2C[C@H]3[C@@H]4C[C@H](F)C5=CC(=O)C=C[C@]5(C)[C@@]4(F)[C@@H](O)C[C@]3(C)[C@]2(C(=O)CO)O1 [Fluocinolone Acetonide] ?
stdout: 207

---

Assay: Fluocinolone acetonide concentration in dog synovial fluid after intraarticular implants in knee joints
Format: in vivo, Canis familiaris
Conditions: dog, synovial fluid (left knee joint), other: bilateral intraarticular implants (knee joints), 18 mg, Left leg (18 mg implants), Dog 3001, Day 56; read-out: Assayed Concentrations of Fluocinolone Acetonide in Dog Synovial Fluid Samples (Left Leg)
readout-type: concentration at 56 day (ng/mL)
Dear colleague, please return just the value in ng/mL, with no unit written.

stdin: I am curious: what concentration at 56 day value has been reported for CC1(C)O[C@@H]2C[C@H]3[C@@H]4C[C@H](F)C5=CC(=O)C=C[C@]5(C)[C@@]4(F)[C@@H](O)C[C@]3(C)[C@]2(C(=O)CO)O1 [Fluocinolone Acetonide] ?
stdout: 36.9

---

Test: Fluocinolone acetonide concentration in dog synovial fluid after intraarticular implants in knee joints
Format: in vivo, Canis familiaris
Conditions: dog, synovial fluid (right knee joint), other: bilateral intraarticular implants (knee joints), 2 mg, Right leg (2 mg devices), Dog 1001, Day 3; read-out: Assayed Concentrations of Fluocinolone Acetonide in Dog Synovial Fluid Samples (Right Leg)
readout-type: concentration at 3 day
Remember to put the unit after the number in your answer.

stdin: I am curious: what concentration at 3 day value has been reported for CC1(C)O[C@@H]2C[C@H]3[C@@H]4C[C@H](F)C5=CC(=O)C=C[C@]5(C)[C@@]4(F)[C@@H](O)C[C@]3(C)[C@]2(C(=O)CO)O1 [Fluocinolone Acetonide] ?
stdout: 52 ng/mL

---

Test: Fluocinolone acetonide concentration in dog synovial fluid after intraarticular implants in knee joints
Format: in vivo, Canis familiaris
Settings: dog, synovial fluid (left knee joint), other: bilateral intraarticular implants (knee joints), 18 mg, Left leg (18 mg implants), Dog 3001, Day 21; read-out: Assayed Concentrations of Fluocinolone Acetonide in Dog Synovial Fluid Samples (Left Leg)
readout-type: concentration at 21 day

stdin: I am curious: what concentration at 21 day value has been reported for CC1(C)O[C@@H]2C[C@H]3[C@@H]4C[C@H](F)C5=CC(=O)C=C[C@]5(C)[C@@]4(F)[C@@H](O)C[C@]3(C)[C@]2(C(=O)CO)O1 [Fluocinolone Acetonide] ?
stdout: 5180 ng/mL

---

Assay: Fluocinolone acetonide concentration in dog synovial fluid after intraarticular implants in knee joints
Type: in vivo, Canis familiaris
Conditions: dog, synovial fluid (left knee joint), other: bilateral intraarticular implants (knee joints), 18 mg, Left leg (18 mg implants), Dog 1002, Day 21; read-out: Assayed Concentrations of Fluocinolone Acetonide in Dog Synovial Fluid Samples (Left Leg)
readout-type: concentration at 21 day (ng/mL)
Dear colleague, please return just the value in ng/mL, with no unit written.

stdin: I am curious: what concentration at 21 day value has been reported for CC1(C)O[C@@H]2C[C@H]3[C@@H]4C[C@H](F)C5=CC(=O)C=C[C@]5(C)[C@@]4(F)[C@@H](O)C[C@]3(C)[C@]2(C(=O)CO)O1 [Fluocinolone Acetonide] ?
stdout: 373

---

Test: Fluocinolone acetonide concentration in dog synovial fluid after intraarticular implants in knee joints
Assay type: in vivo, Canis familiaris
Details: dog, synovial fluid (left knee joint), other: bilateral intraarticular implants (knee joints), 18 mg, Left leg (18 mg implants), Dog 3002, Day 21; read-out: Assayed Concentrations of Fluocinolone Acetonide in Dog Synovial Fluid Samples (Left Leg)
Protocol: Devices were administered once via bilateral intraarticular implants. The day of surgical implantation was Day 1. The devices were made as follows. Fluocinolone acetonide, USP, was compressed into 1.5 mm diameter tablets using standard pharmaceutical methods. The tablets were placed into preformed cups made from silicone elastomer. Cup size was dependent on dosage form. These cups were attached to polyvinyl acetate (PVA) suture tabs. […]
readout-type: concentration at 21 day

stdin: I am curious: what concentration at 21 day value has been reported for CC1(C)O[C@@H]2C[C@H]3[C@@H]4C[C@H](F)C5=CC(=O)C=C[C@]5(C)[C@@]4(F)[C@@H](O)C[C@]3(C)[C@]2(C(=O)CO)O1 [Fluocinolone Acetonide] ?
stdout: 0.276 µg/mL

---

Assay: Fluocinolone acetonide concentration in dog plasma after bilateral intraarticular implants (twelve month toxicity study in beagle dogs)
Format: in vivo, Canis familiaris
Settings: other: bilateral intraarticular implants (knee joints), Dog 1001, Day 21, read-out: Assayed Concentrations of Fluocinolone Acetonide in Dog Plasma Samples
readout-type: concentration at 21 day

stdin: I am curious: what concentration at 21 day value has been reported for CC1(C)O[C@@H]2C[C@H]3[C@@H]4C[C@H](F)C5=CC(=O)C=C[C@]5(C)[C@@]4(F)[C@@H](O)C[C@]3(C)[C@]2(C(=O)CO)O1 [Fluocinolone Acetonide] ?
stdout: 0.57 ng/mL

---

Test: Fluocinolone acetonide concentration in dog synovial fluid after intraarticular implants in knee joints
Format: in vivo, Canis familiaris
Conditions: dog, synovial fluid (left knee joint), other: bilateral intraarticular implants (knee joints), 18 mg, Left leg (18 mg implants), Dog 2001, Day 3; read-out: Assayed Concentrations of Fluocinolone Acetonide in Dog Synovial Fluid Samples (Left Leg)
readout-type: concentration at 3 day

stdin: I am curious: what concentration at 3 day value has been reported for CC1(C)O[C@@H]2C[C@H]3[C@@H]4C[C@H](F)C5=CC(=O)C=C[C@]5(C)[C@@]4(F)[C@@H](O)C[C@]3(C)[C@]2(C(=O)CO)O1 [Fluocinolone Acetonide] ?
stdout: 89 ng/mL

---

Assay: Fluocinolone acetonide concentration in dog synovial fluid after intraarticular implants in knee joints
Type: in vivo, Canis familiaris
Details: dog, synovial fluid (right knee joint), other: bilateral intraarticular implants (knee joints), 2 mg, Right leg (2 mg devices), Dog 3001, Day 3; read-out: Assayed Concentrations of Fluocinolone Acetonide in Dog Synovial Fluid Samples (Right Leg)
readout-type: concentration at 3 day (ng/mL)
Dear colleague, please return just the value in ng/mL, with no unit written.

stdin: I am curious: what concentration at 3 day value has been reported for CC1(C)O[C@@H]2C[C@H]3[C@@H]4C[C@H](F)C5=CC(=O)C=C[C@]5(C)[C@@]4(F)[C@@H](O)C[C@]3(C)[C@]2(C(=O)CO)O1 [Fluocinolone Acetonide] ?
stdout: 57.9

---

Experiment: Fluocinolone acetonide concentration in dog synovial fluid after intraarticular implants in knee joints
Assay type: in vivo, Canis familiaris
Settings: dog, synovial fluid (left knee joint), other: bilateral intraarticular implants (knee joints), 18 mg, Left leg (18 mg implants), Dog 3002, Day 7; read-out: Assayed Concentrations of Fluocinolone Acetonide in Dog Synovial Fluid Samples (Left Leg)
Procedure: Devices were administered once via bilateral intraarticular implants. The day of surgical implantation was Day 1. The devices were made as follows. Fluocinolone acetonide, USP, was compressed into 1.5 mm diameter tablets using standard pharmaceutical methods. The tablets were placed into preformed cups made from silicone elastomer. Cup size was dependent on dosage form. These cups were attached to polyvinyl acetate (PVA) suture tabs. […]
readout-type: concentration at 7 day (ng/mL)
Dear colleague, please return just the value in ng/mL, with no unit written.

stdin: I am curious: what concentration at 7 day value has been reported for CC1(C)O[C@@H]2C[C@H]3[C@@H]4C[C@H](F)C5=CC(=O)C=C[C@]5(C)[C@@]4(F)[C@@H](O)C[C@]3(C)[C@]2(C(=O)CO)O1 [Fluocinolone Acetonide] ?
stdout: 251
